The reported numbers originate from paper PMC5975062.

# ASSAY INFO: Phase 1 plasma pharmacokinetics after single and multiple oral doses
# Format: in vivo, human
# ASSAY CONDITIONS: human, plasma, oral, 500 mg, plasma t1/2,eff (2–12 h postdose), 500 mg bid capsule, fed, nonelderly, day 11; geo mean (CV%)
MEASURED METRIC: half-life (h)

CCCOc1ccc([C@H]2CNC(=O)N2c2ccc3[nH]cnc3c2)cc1    3.01

###

# ASSAY INFO: Phase 1 plasma pharmacokinetics after single and multiple oral doses
# Format: in vivo, human
# ASSAY CONDITIONS: human, plasma, oral, 500 mg, plasma AUC0–12 h, 500 mg bid capsule, fed, nonelderly, day 11; geo mean (CV%)
MEASURED METRIC: AUC(0-t) (ng·h/mL)

CCCOc1ccc([C@H]2CNC(=O)N2c2ccc3[nH]cnc3c2)cc1    9300

###

# ASSAY INFO: Phase 1 CSF pharmacokinetics
# Assay type: in vivo, human
# ASSAY CONDITIONS: human, CSF, oral, 100 mg, CSF concentration, Min (C 12 h), 100 mg bid solution, fed, nonelderly, day 11; geo mean (CV%)
MEASURED METRIC: concentration at 12 h (ng/mL)

CCCOc1ccc([C@H]2CNC(=O)N2c2ccc3[nH]cnc3c2)cc1    1.92

###

# ASSAY INFO: Phase 1 plasma pharmacokinetics after single and multiple oral doses
# Type: in vivo, human
# ASSAY CONDITIONS: human, plasma, oral, 200 mg, plasma tmax, 200 mg bid capsule, fasted, elderly, day 7; median (min–max)
MEASURED METRIC: Tmax (h)

CCCOc1ccc([C@H]2CNC(=O)N2c2ccc3[nH]cnc3c2)cc1    1
